# system: PDC-3 β-lactamase (Pseudomonas aeruginosa, UniProt P24735, T105A)
# Construct: produces the corresponding PDC-3 protein without its signal peptide
# assay-details: Competitive inhibition assay with nitrocefin as reporter substrate (Ki app)
# cond: 150 μM nitrocefin reporter substrate
endpoint-name: Ki (µM)
Your answer should be a plain number; it is taken to be in µM.

Inquiry: Find the measured Ki of "Cn1c(N)c(NC(=O)NCCN)c[n+]1CC1=C(C(=O)O)N2C(=O)[C@@H](NC(=O)/C(=N\OC(C)(C)C(=O)[O-])c3nsc(N)n3)[C@H]2SC1" and report it.
Reply text: 1300

Inquiry: Find the measured Ki of "CC(C)(O/N=C(\C(=O)N[C@@H]1C(=O)N2C(C(=O)[O-])=C(C[n+]3ccccc3)CS[C@H]12)c1csc(N)n1)C(=O)O" and report it.
Reply text: 22
